Entries and their measured Kd follow.
Target: T1, Biotinylated CD3-specific binding domain SEQ ID NO: 14 (biotinylated (site not stated))
T1 construct: Ligand on the neutravidin (NLC) SPR chip
T1 chain: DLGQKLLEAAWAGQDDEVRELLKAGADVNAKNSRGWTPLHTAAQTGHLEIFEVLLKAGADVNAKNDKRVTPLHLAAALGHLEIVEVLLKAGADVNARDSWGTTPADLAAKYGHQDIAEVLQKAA
Test: SPR (ProteOn XPR36), 33 C, multi-trace; biotinylated ligand on chip, binder as analyte

Use these answered entries as a reference point.
- binder: "Binder #9 (designed binder) MRGSHHHHHHGSDLGKKLLQAARAGQLDEVRELLKAGADVNAKDHYGWTPLHLAASEGHLEIVEVLLKAGADVNAKDWIGWTPLHLAASFGHLEIVEVLLKAGADVNAKDVSGKTPLHIAARQGHLEIVEVLLKAGADVNAQDKSGKTPADLAARAGHQDIAEVLQLQKAA"
  obs.value: "< 0.02 nM"
- binder: "Binder #6 (designed binder) MRGSHHHHHHGSDLGKKLLQAARAGQLDEVRELLKAGADVNAKDQYGWTPLHLAAYSGHLEIVEVLLKAGADVNAKDWVGWTPLHLAASHGHLEIVEVLLKAGADVNAKDEAGRTPLHIAAKQGHLEIVEVLLKAGADVNAQDKSGKTPADLAARAGHQDIAEVLQKAA"
  obs.value: "< 0.02 nM"

# context switch: different binder, same Kd
Briefly, Kd measured for Binder #8 (designed binder) MRGSHHHHHHGSDLGKKLLQAARAGQLDEVRELLKAGADVNAKDHYGWTPLHIAAQRGHLEIVEVLLKAGADVNAKDWLGWTPLHVAASHGHLEIVEVLLKAGADVNAKDLSGRTPLHIAARQGHLEIVEVLLKAGADVNAQDKSGKTPADLAARAGHQDIAEVLQKAA : < 0.02 nM
